B1: NF2 (merlin) isoform 7, human, full length (507 aa, lacks exons 2-3 = isoform-1 residues 39-121; exon-16 C-terminus), P35240-4 (parent)
chain: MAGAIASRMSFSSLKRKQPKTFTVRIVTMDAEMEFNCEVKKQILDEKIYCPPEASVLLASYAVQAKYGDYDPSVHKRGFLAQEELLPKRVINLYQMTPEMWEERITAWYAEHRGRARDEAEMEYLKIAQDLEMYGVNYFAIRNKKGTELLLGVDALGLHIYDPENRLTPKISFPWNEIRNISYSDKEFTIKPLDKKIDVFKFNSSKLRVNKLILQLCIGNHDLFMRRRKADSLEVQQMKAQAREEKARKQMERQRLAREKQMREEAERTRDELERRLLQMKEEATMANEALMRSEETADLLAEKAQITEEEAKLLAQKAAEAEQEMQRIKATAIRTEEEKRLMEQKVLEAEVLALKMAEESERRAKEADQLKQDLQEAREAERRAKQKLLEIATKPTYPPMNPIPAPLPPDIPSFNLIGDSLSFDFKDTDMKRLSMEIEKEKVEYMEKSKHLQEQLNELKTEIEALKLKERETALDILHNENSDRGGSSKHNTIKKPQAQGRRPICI

- Variants of: B1
- assay: reverse yeast two-hybrid deep mutational scan (rY2H-seq): NF2 isoform 7 mutant library as bait mated with wild-type prey strains; selection on medium lacking adenine for non-interacting pairs; NextSeq paired-end sequencing; enrichment vs …
- assay conditions: with EMILIN1 (elastin microfibril interfacer 1), Q9Y6C2; yeast diploids after mating (RBait_S3 x RPrey_S3), 30 °C, selection for reporter genes on NB agar; human tyrosine kinase ABL2 co-expressed as the active kinase …; HIGHER = WEAKER BINDING (the opposite of display enrichments): higher = stronger loss of interaction: reverse Y2H selects yeast in which bait and prey do NOT interact (growth without adenine), so a …; hits-only table; scale: rY2H score; numbering: uniprot, sequence starts at 1
metric: enrichment

// solved cases for enrichment follow
   mutant_designation      metric  test_value
0               E259K  enrichment        3.41
1               L300R  enrichment        3.24

A: E323A
B: T336K
Prompt: Between A and B , whose measured enrichment reads higher? Output the label that corresponds to your choice.
Completion: B
(B: 4.16, A: 1.45)

P: A319K
Q: E265L
Prompt: Between P and Q , whose measured enrichment reads higher? Output the label that corresponds to your choice.
Completion: Q
(Q: 3.78, P: 1.77)

I: T332S
II: V209A
Prompt: Returns: the label, I or II , whose recorded enrichment is the lower number. Output the label that corresponds to your choice.
Completion: I
(I: 2.08, II: 5.24)

a: P497L
b: N402L
c: A320L
d: N416A
Prompt: Parameters: sort_field (enrichment), sort_dir (desc). Response format: the labels, sorted as the prompt asks.
Completion: d, c, a, b

I: E339A
II: R383K
Prompt: Returns: the label, I or II , whose recorded enrichment is the lower number. Output the label that corresponds to your choice.
Completion: I

1: E391L
2: R471E
Prompt: Between 1 and 2 , whose measured enrichment reads higher? Output the label that corresponds to your choice.
Completion: 2

a: L301E
b: N416T
Prompt: Between a and b , whose measured enrichment reads higher? Output the label that corresponds to your choice.
Completion: b

1: S483E
2: E325A
Prompt: Returns: the label, 1 or 2 , whose recorded enrichment is the lower number. Output the label that corresponds to your choice.
Completion: 1

The reported measurements were obtained from paper PMC10244618.
